B1: Triacylglycerol hydrolase DDHD2, residues 389 to 447; numbered along this chain, O94830 (parent)
chain: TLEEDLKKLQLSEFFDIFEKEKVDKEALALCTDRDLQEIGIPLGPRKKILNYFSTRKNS

variants of: B1; experiment: abundance fitness (aPCA) (normalised: wild type 0, dead -1); higher = more abundant; growth selection in yeast, the domain comes from the species named; settings: Homo sapiens
Classification by abundance fitness | ranges: low (below -0.5), middle (-0.5 to below -0.1), high (-0.1 or more)

[[record]]
residue_change = "N51H"
label_value = "middle"

[[record]]
residue_change = "L11P"
label_value = "low"

[[record]]
residue_change = "T55N"
label_value = "high"

[[record]]
residue_change = "I41S"
label_value = "middle"

[[record]]
residue_change = "D16E"
label_value = "high"

[[record]]
residue_change = "L30H"
label_value = "high"

[[record]]
residue_change = "L11H"
label_value = "low"

[[record]]
residue_change = "L6Q"
label_value = "middle"

[[record]]
residue_change = "D33C"
label_value = "low"

[[record]]
residue_change = "T1G"
label_value = "high"

[[record]]
residue_change = "D35Q"
label_value = "high"

[[record]]
residue_change = "F18P"
label_value = "high"

[[record]]
residue_change = "I39G"
label_value = "middle"

[[record]]
residue_change = "F18N"
label_value = "middle"

[[record]]
residue_change = "K22T"
label_value = "middle"

[[record]]
residue_change = "K22G"
label_value = "high"

[[record]]
residue_change = "F18T"
label_value = "low"

[[record]]
residue_change = "S59Q"
label_value = "middle"

[[record]]
residue_change = "R34N"
label_value = "high"

[[record]]
residue_change = "L50C"
label_value = "middle"

[[record]]
residue_change = "N58T"
label_value = "high"

[[record]]
residue_change = "E3L"
label_value = "middle"

[[record]]
residue_change = "F14G"
label_value = "low"

[[record]]
residue_change = "K47H"
label_value = "middle"

[[record]]
residue_change = "L6V"
label_value = "low"

[[record]]
residue_change = "L6S"
label_value = "low"

[[record]]
residue_change = "E13T"
label_value = "low"

[[record]]
residue_change = "K48W"
label_value = "low"

[[record]]
residue_change = "Y52V"
label_value = "middle"

[[record]]
residue_change = "Q37I"
label_value = "high"

[[record]]
residue_change = "G40Y"
label_value = "low"

